Entries and their EC50 values follow.
system.under.test: human mGluR2 receptor (Homo sapiens)
Construct: expressed in transfected cells; host or cells: CHO cells (membranes)
Sequence (Q14416 19-872): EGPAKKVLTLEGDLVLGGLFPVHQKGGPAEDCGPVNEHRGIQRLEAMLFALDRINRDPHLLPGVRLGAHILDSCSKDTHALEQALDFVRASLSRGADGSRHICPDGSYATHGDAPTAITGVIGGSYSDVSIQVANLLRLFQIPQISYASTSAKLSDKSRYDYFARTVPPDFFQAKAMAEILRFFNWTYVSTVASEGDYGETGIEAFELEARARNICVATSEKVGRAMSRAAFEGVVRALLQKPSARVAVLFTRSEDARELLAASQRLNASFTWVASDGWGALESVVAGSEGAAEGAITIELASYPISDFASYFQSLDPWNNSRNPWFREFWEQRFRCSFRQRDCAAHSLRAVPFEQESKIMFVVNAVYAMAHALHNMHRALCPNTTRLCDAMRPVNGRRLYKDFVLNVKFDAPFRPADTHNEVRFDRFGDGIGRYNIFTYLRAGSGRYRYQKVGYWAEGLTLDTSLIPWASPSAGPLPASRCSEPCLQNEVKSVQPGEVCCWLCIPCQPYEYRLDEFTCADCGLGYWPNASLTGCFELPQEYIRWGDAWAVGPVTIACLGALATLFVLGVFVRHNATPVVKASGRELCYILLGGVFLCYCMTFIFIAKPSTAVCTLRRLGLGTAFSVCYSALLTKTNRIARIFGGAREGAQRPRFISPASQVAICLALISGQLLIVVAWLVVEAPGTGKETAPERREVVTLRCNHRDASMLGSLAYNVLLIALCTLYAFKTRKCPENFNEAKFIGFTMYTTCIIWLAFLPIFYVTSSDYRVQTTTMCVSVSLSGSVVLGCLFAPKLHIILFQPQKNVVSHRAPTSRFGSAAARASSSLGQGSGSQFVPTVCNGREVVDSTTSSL
assay.name: [35S]GTPγS binding assay, mGluR2 positive allosteric modulation (PAM)
Type: biochemical
reported.conditions: membranes from CHO cells transfected with human mGluR2; in presence of glutamate at EC20; -log EC50 with EC50 in M; read-out: GTPγS - hmGluR2 PAM pEC50 (converted)
Just the number please, in µM, no unit attached.

Worked examples follow.
molecule: Fc1ccc(C2CN(Cc3ccn4c(CC5CC5)nnc4c3C(F)(F)F)CCN2)c(F)c1 (single isomer, unassigned) [Compound 19a]
EC50 [µM]: 0.912
//
molecule: CC1(c2ccccc2)CCN(Cc2ccn3c(CC4CC4)nnc3c2C(F)(F)F)C1 (single isomer, unassigned) [Compound 13]
EC50 [µM]: 0.0126
//
molecule: CC1(c2ccccc2)CN(Cc2ccn3c(CC4CC4)nnc3c2C(F)(F)F)CCO1 (single isomer, unassigned) [Compound 8b]
EC50 [µM]: 0.00832

Would you kindly look at the next entry?
# input What measured EC50 is associated with FC(F)(F)c1c(CN2CCO[C@H](c3ccccc3)C2)ccn2c(CC3CC3)nnc12 on human mGluR2 receptor (Homo sapiens)?
# output 0.871
